Numbers sourced from the NIST ThermoML archive (doi:10.1016/j.jct.2008.04.008).

Collected mass density values appear next to each entry.
assay.info: mn = molality of the nth substance listed, in mol/kg
experimental.conditions: 313.15 K; Liquid; m2 = 0
I only need the number, in kg/m3, no unit after it.

# example entries with known answers
>>> val("CO [methanol] + [Br-].[Na+]")
772.28
>>> val("CO [methanol] + [Na+].[O-][Cl+3]([O-])([O-])[O-]")
772.219
>>> val("CO [methanol] + [Br-].c1ccc([P+](c2ccccc2)(c2ccccc2)c2ccccc2)cc1")
772.219

Data request: Which mass density is listed for CO [methanol] + [Na+].c1ccc([B-](c2ccccc2)(c2ccccc2)c2ccccc2)cc1 ?
Data returned: 772.229

###

assay.info: mn = molality of the nth substance listed, in mol/kg
experimental.conditions: 288.15 K; Liquid; m2 = 0
Collected mass density values appear next to each entry.
I only need the number, in kg/m3, no unit after it.

# example entries with known answers
>>> val("CO [methanol] + [Na+].[O-][Cl+3]([O-])([O-])[O-]")
795.879
>>> val("CO [methanol] + [Br-].[Na+]")
795.934
>>> val("CO [methanol] + [Br-].c1ccc([P+](c2ccccc2)(c2ccccc2)c2ccccc2)cc1")
795.88

Shift focus to the following entry.
Data request: Which mass density is listed for CO [methanol] + [Na+].c1ccc([B-](c2ccccc2)(c2ccccc2)c2ccccc2)cc1 ?
Data returned: 795.888
